- Tested on: NCI-H2052 (Mesothelioma)
- Experimental details: combination Emax (second highest fraction inhibited in the dose matrix, 72 h); higher = more inhibition; extreme values may be limits of the assay
Result type: combination Emax
Enter the number alone.

[
  {
    "Compound": "CC1(C)CCC(CN2CCN(c3ccc(C(=O)NS(=O)(=O)c4ccc(NCC5CCOCC5)c([N+](=O)[O-])c4)c(Oc4cnc5[nH]ccc5c4)c3)CC2)=C(c2ccc(Cl)cc2)C1 [Venetoclax] + CN(C)CCCOc1ccc(-c2ccc3ncc4c(c3c2)n(C2CCOCC2)c(=O)n4C)cn1 [AZD0156] (first compound max 1 µM, 7x7, partner max 1 µM)",
    "Test result": 0.235
  }
]

// recorded combination Emax for Cc1c2c(nn1C)CSCc1cc(n(C)n1)CSc1cc(c3ccccc3c1)OCCCc1c(C(=O)O)n(C)c3c-2c(Cl)ccc13 [AZD5991] + Cc1cc2ncnn2cc1Nc1ncc2c(n1)n(C1CCOCC1)c(=O)n2C [AZD7648] (first compound max 1 µM, 7x7, partner max 10 µM) : 0.394

----------
- Tested on: MHH-CALL-2 (B-Lymphoblastic Leukemia)
- Experimental details: combination Emax (second highest fraction inhibited in the dose matrix, 72 h); higher = more inhibition; extreme values may be limits of the assay
Result type: combination Emax
API note: the answer field is a bare number with no unit suffix.

[
  {
    "Molecule": "CC1(C)CCC(CN2CCN(c3ccc(C(=O)NS(=O)(=O)c4ccc(NCC5CCOCC5)c([N+](=O)[O-])c4)c(Oc4cnc5[nH]ccc5c4)c3)CC2)=C(c2ccc(Cl)cc2)C1 [Venetoclax] + C=CCn1c(=O)c2cnc(Nc3ccc(N4CCN(C)CC4)cc3)nc2n1-c1cccc(C(C)(C)O)n1 [AZD1775] (first compound max 1 µM, partner max 1 µM)",
    "Assay system": "MHH-CALL-2 (B-Lymphoblastic Leukemia)",
    "combination Emax": 0.681
  },
  {
    "Molecule": "Cc1c2c(nn1C)CSCc1cc(n(C)n1)CSc1cc(c3ccccc3c1)OCCCc1c(C(=O)O)n(C)c3c-2c(Cl)ccc13 [AZD5991] + CN(C)CCCOc1ccc(-c2ccc3ncc4c(c3c2)n(C2CCOCC2)c(=O)n4C)cn1 [AZD0156] (first compound max 1 µM, 7x7, partner max 1 µM)",
    "Assay system": "MHH-CALL-2 (B-Lymphoblastic Leukemia)",
    "combination Emax": 0.985
  }
]

From here, focus on the item given below.
Entry NC1(C(=O)N[C@@H](CCO)c2ccc(Cl)cc2)CCN(c2ncnc3[nH]ccc23)CC1 [Capivasertib] + COc1nnc2ccc(N3CCC(c4ccc(OCCN5CCN(C)C(=O)[C@H]5C)cc4)CC3)nn12 [AZD5153] (first compound max 10 µM, 7x7, partner max 1 µM) — recorded combination Emax = 0.338

----------
Below, each of the compounds is paired with its reported combination Emax value.
- System: SNU-449 (Hepatocellular Carcinoma)
- Experimental details: combination Emax (second highest fraction inhibited in the dose matrix, 72 h); higher = more inhibition; extreme values may be limits of the assay
// keep it numeric: no unit symbol after the value

[
  {
    "Compound": "Cn1cnc2c(F)c(Nc3ccc(Br)cc3Cl)c(C(=O)NOCCO)cc21 [Selumetinib] + C[C@@H]1COCCN1C2=NC(=NC(=C2)C3(CC3)[S@](=N)(=O)C)C4=C5C=CNC5=NC=C4 [AZD6738] (first compound max 10 µM, 7x7, partner max 10 µM)",
    "combination Emax": 0.111
  },
  {
    "Compound": "O=C(c1cc(Cc2n[nH]c(=O)c3ccccc23)ccc1F)N1CCN(C(=O)C2CC2)CC1 [Olaparib] + Cc1c2c(nn1C)CSCc1cc(n(C)n1)CSc1cc(c3ccccc3c1)OCCCc1c(C(=O)O)n(C)c3c-2c(Cl)ccc13 [AZD5991] (first compound max 10 µM, 7x7, partner max 1 µM)",
    "combination Emax": 0.0781
  },
  {
    "Compound": "Cc1cc2ncnn2cc1Nc1ncc2c(n1)n(C1CCOCC1)c(=O)n2C [AZD7648] + C=CCn1c(=O)c2cnc(Nc3ccc(N4CCN(C)CC4)cc3)nc2n1-c1cccc(C(C)(C)O)n1 [AZD1775] (first compound max 10 µM, partner max 1 µM)",
    "combination Emax": 0.333
  },
  {
    "Compound": "COc1cccc(OCCCN)c1-c1cc(Nc2cnc(C#N)cn2)n[nH]1 [Prexasertib] + C=CCn1c(=O)c2cnc(Nc3ccc(N4CCN(C)CC4)cc3)nc2n1-c1cccc(C(C)(C)O)n1 [AZD1775] (first compound max 1 µM, partner max 1 µM)",
    "combination Emax": 0.439
  }
]

Please examine the following record next.
Entry NC1(C(=O)N[C@@H](CCO)c2ccc(Cl)cc2)CCN(c2ncnc3[nH]ccc23)CC1 [Capivasertib] + COc1nnc2ccc(N3CCC(c4ccc(OCCN5CCN(C)C(=O)[C@H]5C)cc4)CC3)nn12 [AZD5153] (first compound max 10 µM, 7x7, partner max 1 µM) , combination Emax reported as 0.224

----------
- System: OV-56 (Ovarian Carcinoma)
- Experimental details: Bliss excess, mean over the matrix (fraction); higher = more synergy
Result type: Bliss excess

The molecule C[C@@H](c1ccc2nccn2c1)n1nnc2ncc(-c3cnn(C)c3)nc21 [Savolitinib] + Cc1c2c(nn1C)CSCc1cc(n(C)n1)CSc1cc(c3ccccc3c1)OCCCc1c(C(=O)O)n(C)c3c-2c(Cl)ccc13 [AZD5991] (first compound max 1 µM, 7x7, partner max 1 µM) showed Bliss excess equal to -0.0547

----------
# combination Emax per entry
- System: BFTC-909 (Kidney Carcinoma)
- Experimental details: combination Emax (second highest fraction inhibited in the dose matrix, 72 h); higher = more inhibition; extreme values may be limits of the assay

Use these answered entries as a reference point.
[
  {
    "Molecule": "CC(=O)c1c(C)c2cnc(Nc3ccc(N4CCNCC4)cn3)nc2n(C2CCCC2)c1=O [Palbociclib] + CN(CC[C@H](CSC1=CC=CC=C1)NC2=C(C=C(C=C2)S(=O)(=O)NC(=O)C3=CC=C(C=C3)N4CCC(CC4)[C@H](C5=CC=CC=C5C6=CC=C(C=C6)Cl)O)S(=O)(=O)C(F)(F)F)CCO [AZD4320] (first compound max 10 µM, 7x7, partner max 1 µM)",
    "combination Emax": 0.55
  },
  {
    "Molecule": "NC1(C(=O)N[C@@H](CCO)c2ccc(Cl)cc2)CCN(c2ncnc3[nH]ccc23)CC1 [Capivasertib] + Cn1cnc2c(F)c(Nc3ccc(Br)cc3Cl)c(C(=O)NOCCO)cc21 [Selumetinib] (first compound max 10 µM, 7x7, partner max 10 µM)",
    "combination Emax": 0.734
  }
]

Alright, here's another molecule for you.
Reported combination Emax (BFTC-909 (Kidney Carcinoma)) for entry CC1(C)CCC(CN2CCN(c3ccc(C(=O)NS(=O)(=O)c4ccc(NCC5CCOCC5)c([N+](=O)[O-])c4)c(Oc4cnc5[nH]ccc5c4)c3)CC2)=C(c2ccc(Cl)cc2)C1 [Venetoclax] + C=CCn1c(=O)c2cnc(Nc3ccc(N4CCN(C)CC4)cc3)nc2n1-c1cccc(C(C)(C)O)n1 [AZD1775] (first compound max 1 µM, partner max 1 µM) is 0.667

----------
- Test system: HuCCT1 (Biliary Tract Carcinoma)
- Experimental details: Bliss excess, mean over the matrix (fraction); higher = more synergy
Listed here: items and their measured Bliss excess.
Reply with the value as a number alone.

Below, 6 compounds whose answers are already recorded.
[
  {
    "Compound": "CS(=O)(=O)CCNCc1ccc(-c2ccc3ncnc(Nc4ccc(OCc5cccc(F)c5)c(Cl)c4)c3c2)o1 [Lapatinib] + Cn1cnc2c(F)c(Nc3ccc(Br)cc3Cl)c(C(=O)NOCCO)cc21 [Selumetinib] (first compound max 10 µM, 7x7, partner max 10 µM)",
    "Test result": 0.0208
  },
  {
    "Compound": "C[C@@H](c1ccc2nccn2c1)n1nnc2ncc(-c3cnn(C)c3)nc21 [Savolitinib] + CC1(C)CCC(CN2CCN(c3ccc(C(=O)NS(=O)(=O)c4ccc(NCC5CCOCC5)c([N+](=O)[O-])c4)c(Oc4cnc5[nH]ccc5c4)c3)CC2)=C(c2ccc(Cl)cc2)C1 [Venetoclax] (first compound max 1 µM, 7x7, partner max 1 µM)",
    "Test result": -0.0525
  },
  {
    "Compound": "CC1(C)CCC(CN2CCN(c3ccc(C(=O)NS(=O)(=O)c4ccc(NCC5CCOCC5)c([N+](=O)[O-])c4)c(Oc4cnc5[nH]ccc5c4)c3)CC2)=C(c2ccc(Cl)cc2)C1 [Venetoclax] + C[C@@H](Nc1cc(F)cc(F)c1)c1cc(C(=O)N(C)C)cc2c(=O)cc(N3CCOCC3)oc12 [AZD8186] (first compound max 1 µM, 7x7, partner max 3 µM)",
    "Test result": -0.0383
  },
  {
    "Compound": "Cc1c2c(nn1C)CSCc1cc(n(C)n1)CSc1cc(c3ccccc3c1)OCCCc1c(C(=O)O)n(C)c3c-2c(Cl)ccc13 [AZD5991] + C[C@@H]1COCCN1C2=NC(=NC(=C2)C3(CC3)[S@](=N)(=O)C)C4=C5C=CNC5=NC=C4 [AZD6738] (first compound max 1 µM, 7x7, partner max 10 µM)",
    "Test result": 0.0206
  },
  {
    "Compound": "CN(C)CCCOc1ccc(-c2ccc3ncc4c(c3c2)n(C2CCOCC2)c(=O)n4C)cn1 [AZD0156] + O=C(c1cc(Cc2n[nH]c(=O)c3ccccc23)ccc1F)N1CCN(C(=O)C2CC2)CC1 [Olaparib] (first compound max 3 µM, partner max 3 µM)",
    "Test result": -0.0012
  },
  {
    "Compound": "CN(CCO)CC[C@H](CSc1ccccc1)Nc1ccc(S(=O)(=O)NC(=O)c2ccc(N3CCC([C@@H](O)c4ccccc4-c4ccc(Cl)cc4)CC3)cc2)cc1S(=O)(=O)C(F)(F)F [AZD4320] + C=CCn1c(=O)c2cnc(Nc3ccc(N4CCN(C)CC4)cc3)nc2n1-c1cccc(C(C)(C)O)n1 [AZD1775] (first compound max 1 µM, partner max 1 µM)",
    "Test result": -0.0514
  }
]

Consider COc1cc2c(cc1OCCCCCOc1cc3c(cc1OC)C(=O)N1C=C(C)C[C@H]1C=N3)N=C[C@@H]1CC(C)=CN1C2=O [SG3199] + O=C(c1cc(Cc2n[nH]c(=O)c3ccccc23)ccc1F)N1CCN(C(=O)C2CC2)CC1 [Olaparib] (first compound max 0.001 µM, 7x7, partner max 10 µM) . Its measured Bliss excess is -0.0309

What the record says about CC1(C)CCC(CN2CCN(c3ccc(C(=O)NS(=O)(=O)c4ccc(NCC5CCOCC5)c([N+](=O)[O-])c4)c(Oc4cnc5[nH]ccc5c4)c3)CC2)=C(c2ccc(Cl)cc2)C1 [Venetoclax] + Cn1cnc2c(F)c(Nc3ccc(Br)cc3Cl)c(C(=O)NOCCO)cc21 [Selumetinib] (first compound max 1 µM, 7x7, partner max 3 µM) : Bliss excess is -0.0128
